test: CEETOX_H295R_ESTRONE: CeeTox H295R High-throughput Steroidogenesis Assay for Estrone (AID 2283441); conditions: actives raise or lower the signal;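 note: estrone secreted into medium measured by LC-MS/MS after dansyl derivatization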
Calls of active or inactive are those of the source. Rule for the calls: active = hit-call score of the fitted dose curve at least 0.9, where 1 is the maximum; inactive = score below 0.9.
Thanks in advance; please answer with one of these: active, inactive

// outcome(item) with item = CC[C@H]1CC[C@H](NCc2cc3c(cc2OC)[C@H]2C[C@H]2C(=O)N3C)[C@H](c2ccccc2)N1
active

Kindly provide the recorded test outcome for the following compound: CCCCCCCCO
inactive

Query: recorded result category for Cn1c(=O)cc(Oc2ccc(F)cc2F)c2cnc(NCC(C)(C)O)nc21 in this test
inactive

Kindly provide the recorded test outcome for the following compound: COC(=O)c1c(Cl)c(Cl)c(C(=O)OC)c(Cl)c1Cl
inactive

Outcome logged for O=c1[nH]c2ccc(S(=O)CCN3CCC(Cc4ccc(F)cc4)CC3)cc2o1 (stereo unspecified) in this assay:
inactive

Dear colleague, could you share the recorded outcome for COc1cccc(-c2ccc(/C=C\CN3CCCCCC3)cc2Cl)c1 when you have a moment?
inactive
